target: von Willebrand factor (VWF) (Homo sapiens, UniProt P04275 P04275:764-2813); experiment: filter; Bmax 21%; 2 mM CaCl2, 37 C; conditions: tags: factor VIII free, Haematologic Technologies Inc; label: 5'-32P
observation.type: Kd (nM)
Kindly provide the numeric value in nM only, without the unit symbol.

-- ask State the recorded Kd for this entry: CCGAACUGCCCUCAGCUAUUAUUAGCUGACGCACAGACGG (ssRNA, 2'-F C and U; 2'-OH A and G; 3' idT) [T30]
-- reply 39.3

Each recorded value in this set is attributed to patent US20190218553.
